Assay: Selectivity ratio of cytotoxicity against HUVEC cells for to MIC for Staphylococcus aureus ATCC29213
Format: toxicity, cell-based
Details: human

{"smiles-text": "CCCCCCCNC(=O)C[N+](C)(C)CCCCOc1cc(C)ccc1C(C)C.[Br-]", "selectivity ratio": 64}

----------
log10 MIC values by entry
System: Enterococcus
Test: Antibacterial activity against vancomycin-resistant Enterococcus ATCC51299 by CLSI based serial dilution method
Format: functional
measured-parameter: log10 MIC (log10 of the value in µg/mL)

{"smiles-text": "CCCN(CCC)C(=O)C[N+](C)(C)CCCCOc1cc(C)ccc1C(C)C.[Br-]", "measured-parameter": "log10 MIC", "assay-result": 1.81}
{"smiles-text": "CCCCCCNC(=O)C[N+](C)(C)CCCCCOc1cc(C)ccc1C(C)C.[Br-]", "measured-parameter": "log10 MIC", "assay-result": 0.60}
{"smiles-text": "CCCCNC(=O)C[N+](C)(C)CCCCOc1cc(C)ccc1C(C)C.[Br-]", "measured-parameter": "log10 MIC", "assay-result": 2.11}
{"smiles-text": "CCCCN(CCCC)C(=O)C[N+](C)(C)CCCCCOc1cc(C)ccc1C(C)C.[Br-]", "measured-parameter": "log10 MIC", "assay-result": 0.90}
{"smiles-text": "Cc1ccc(C(C)C)cc1OCCCC[N+](C)(C)CC(=O)N1CCSCC1.[Br-]", "measured-parameter": "log10 MIC", "assay-result": 2.11}
{"smiles-text": "CCCCCNC(=O)C[N+](C)(C)CCCOc1cc(C)ccc1C(C)C.[Br-]", "measured-parameter": "log10 MIC", "assay-result": 1.51}
{"smiles-text": "CCCCCNC(=O)C[N+](C)(C)CCCCOc1cc(C)ccc1C(C)C.[Br-]", "measured-parameter": "log10 MIC", "assay-result": 1.51}
{"smiles-text": "CCCCCCNC(=O)C[N+](C)(C)CCCCOc1cc(C(C)C)ccc1C.[Br-]", "measured-parameter": "log10 MIC", "assay-result": 0.90}
{"smiles-text": "Cc1ccc(C(C)C)cc1OCCCC[N+](C)(C)CC(=O)N(CC(C)C)CC(C)C.[Br-]", "measured-parameter": "log10 MIC", "assay-result": 0.90}
{"smiles-text": "Cc1ccc(C(C)C)cc1OCCCCC[N+](C)(C)CC(=O)N1CCSCC1.[Br-]", "measured-parameter": "log10 MIC", "assay-result": 1.81}
{"smiles-text": "CCCCCCN(CCCCCC)C(=O)C[N+](C)(C)CCCOc1cc(C(C)C)ccc1C.[Br-]", "measured-parameter": "log10 MIC", "assay-result": 0.00}
{"smiles-text": "CCCCNC(=O)C[N+](C)(C)CCCCOc1cc(C(C)C)ccc1C.[Br-]", "measured-parameter": "log10 MIC", "assay-result": 1.81}
{"smiles-text": "CCCCCNC(=O)C[N+](C)(C)CCCOc1cc(C(C)C)ccc1C.[Br-]", "measured-parameter": "log10 MIC", "assay-result": 1.51}
{"smiles-text": "CCCCCCN(CCCCCC)C(=O)C[N+](C)(C)CCCCOc1cc(C(C)C)ccc1C.[Br-]", "measured-parameter": "log10 MIC", "assay-result": -0.30}
{"smiles-text": "CCCCN(CCCC)C(=O)C[N+](C)(C)CCCCOc1cc(C(C)C)ccc1C.[Br-]", "measured-parameter": "log10 MIC", "assay-result": 1.20}

Source: ChEMBL document CHEMBL5608215
